The values you see were collected from paper PMC9343874.

Experiment: Pharmacokinetic study in rats after oral administration of cinobufacini capsule (UPLC-MS/MS of plasma)
Type: in vivo, rat
Conditions: male, Sprague-Dawley, in vivo; rat plasma, oral cinobufacini capsule 0.9 g/kg (low), mean ± SD, n = 6
result type: log10(AUC(0-t)) (log10 of the value in ng·h/mL)
Log scale reminder: AUC(0-t) in ng·h/mL, then log10 taken.

Looking up C[C@]12CC[C@H](O)C[C@@]1(O)CC[C@@H]1[C@@H]2CC[C@]2(C)[C@@H](c3ccc(=O)oc3)CC[C@]12O , I see its log10(AUC(0-t)) listed as 1.39

Looking up C[C@]12CC[C@H](O)C[C@@]1(O)CC[C@@H]1[C@@H]2CC[C@]2(C)[C@@H](c3ccc(=O)oc3)[C@@H](O)[C@H]3O[C@]132 , I see its log10(AUC(0-t)) listed as 1.11

Looking up C[C@]12CC[C@H]3[C@@H](CC[C@]4(O)C[C@@H](O)CC[C@]34C=O)[C@@]1(O)CC[C@@H]2c1ccc(=O)oc1 , I see its log10(AUC(0-t)) listed as 0.60

Looking up C[C@]12CC[C@H](O)C[C@H]1CC[C@@H]1[C@@H]2CC[C@]2(C)[C@@H](c3ccc(=O)oc3)CC[C@]12O , I see its log10(AUC(0-t)) listed as 2.14

Looking up C[C@]12CC[C@H](O)C[C@H]1CC[C@@H]1[C@@H]2CC[C@]2(C)[C@@H](c3ccc(=O)oc3)[C@@H](O)[C@H]3O[C@]132 , I see its log10(AUC(0-t)) listed as 1.79

----------
Assay: Pharmacokinetic study in rats after oral administration of cinobufacini capsule (UPLC-MS/MS of plasma)
Assay type: in vivo, rat
Conditions: male, Sprague-Dawley, in vivo; rat plasma, oral cinobufacini capsule 0.9 g/kg (low), mean ± SD, n = 6; read-out: Vz/F
Text: Male Sprague–Dawley rats (weighing 200–220 g) of SPF grade were offered by Sippr/BK laboratory Animal, Corp., Ltd. (Shanghai, China) and fed in the Laboratory Animal Center of the Shanghai University of Traditional Chinese Medicine. […] An Agilent 1290 Infinity series UPLC system was combined with an Agilent 6460 series triple quadrupole mass spectrometer (Agilent Technologies, Santa Clara, CA, United States) to quantify all 13 analytes in an ESI-positive ionization mode. […]
Would you mind telling me the reported Vd/F of each entry?
Give the value, in units of L/kg, as a plain number.

Looking up C[C@]12CC[C@H](O)C[C@H]1CC[C@@H]1[C@@H]2[C@H](O)C(=O)[C@]2(C)[C@@H](c3ccc(=O)oc3)CC[C@]12O , I see its Vd/F listed as 8.01

Looking up C[C@]12CC[C@H](O)C[C@H]1CC[C@@H]1[C@@H]2CC[C@]2(C)[C@@H](c3ccc(=O)oc3)[C@@H](O)[C@H]3O[C@]132 , I see its Vd/F listed as 2.8

Looking up C[C@]12CC[C@H](O)C[C@H]1CC[C@@H]1[C@@H]2C(=O)[C@@H](O)[C@]2(C)[C@@H](c3ccc(=O)oc3)CC[C@]12O , I see its Vd/F listed as 7.15

Looking up C[C@]12CC[C@H]3[C@@H](CC[C@]4(O)C[C@@H](O)CC[C@]34C=O)[C@@]1(O)CC[C@@H]2c1ccc(=O)oc1 , I see its Vd/F listed as 14.2

Looking up C[C@]12CC[C@H](O)C[C@@]1(O)CC[C@@H]1[C@@H]2CC[C@]2(C)[C@@H](c3ccc(=O)oc3)[C@@H](O)[C@H]3O[C@]132 , I see its Vd/F listed as 5.16

----------
Test: Pharmacokinetic study in rats after oral administration of cinobufacini capsule (UPLC-MS/MS of plasma)
Assay type: in vivo, rat
Conditions: male, Sprague-Dawley, in vivo; rat plasma, oral cinobufacini capsule 1.8 g/kg (medium), mean ± SD, n = 6
Decision: Tmax compared against 20 min; not below it gives Criterion met, below it gives Criterion not met.

Task: Check the entry C[C@]12CC[C@H]3[C@@H](CC[C@]4(O)C[C@@H](O)CC[C@]34C=O)[C@@]1(O)CC[C@@H]2c1ccc(=O)oc1 [HBG, hellebrigenin] : does Tmax equal or exceed 20 min?
Output: Criterion met

Task: Check the entry C[C@]12CC[C@H](O)C[C@H]1CC[C@@H]1[C@@H]2CC[C@]2(C)[C@@H](c3ccc(=O)oc3)CC[C@]12O [BF, bufalin] : does Tmax equal or exceed 20 min?
Output: Criterion met

Task: Check the entry C[C@]12CC[C@H](O)C[C@H]1CC[C@@H]1[C@@H]2CC[C@]2(C)[C@@H](c3ccc(=O)oc3)[C@@H](O)[C@H]3O[C@]132 [DCG, desacetylcinobufagin] : does Tmax equal or exceed 20 min?
Output: Criterion met

Task: Check the entry C[C@]12CC[C@H](O)C[C@H]1CC[C@@H]1[C@@H]2C(=O)[C@@H](O)[C@]2(C)[C@@H](c3ccc(=O)oc3)CC[C@]12O [PBG, pseudobufarenogin] : does Tmax equal or exceed 20 min?
Output: Criterion met

Task: Check the entry C[C@]12CC[C@H](O)C[C@H]1CC[C@@H]1[C@@H]2[C@H](O)C(=O)[C@]2(C)[C@@H](c3ccc(=O)oc3)CC[C@]12O [ABG, arenobufagin] : does Tmax equal or exceed 20 min?
Output: Criterion not met

Task: Check the entry C[C@]12CC[C@H](O)C[C@@]1(O)CC[C@@H]1[C@@H]2CC[C@]2(C)[C@@H](c3ccc(=O)oc3)[C@@H](O)[C@H]3O[C@]132 [DCT, desacetylcinobufotalin] : does Tmax equal or exceed 20 min?
Output: Criterion met

Task: Check the entry C[C@]12CC[C@H](O)C[C@@]1(O)CC[C@@H]1[C@@H]2CC[C@]2(C)[C@@H](c3ccc(=O)oc3)CC[C@]12O [TCG, telocinobufagin] : does Tmax equal or exceed 20 min?
Output: Criterion not met

Task: Check the entry C[C@]12CC[C@H](O)C[C@H]1CC[C@@H]1[C@@H]2[C@H](O)C[C@]2(C)[C@@H](c3ccc(=O)oc3)CC[C@]12O [GBL, gamabufotalin] : does Tmax equal or exceed 20 min?
Output: Criterion met

----------
Would you mind telling me the reported AUC(0-inf) of each entry?
Test: Pharmacokinetic study in rats after oral administration of cinobufacini capsule (UPLC-MS/MS of plasma)
Type: in vivo, rat
Conditions: male, Sprague-Dawley, in vivo; rat plasma, oral cinobufacini capsule 0.9 g/kg (low), mean ± SD, n = 6
Give the value, in units of ng·h/mL, as a plain number.

Looking up C[C@]12CC[C@H](O)C[C@H]1CC[C@@H]1[C@@H]2C(=O)[C@@H](O)[C@]2(C)[C@@H](c3ccc(=O)oc3)CC[C@]12O [PBG, pseudobufarenogin] , I see its AUC(0-inf) listed as 13.8

Looking up C[C@]12CC[C@H](O)C[C@H]1CC[C@@H]1[C@@H]2CC[C@]2(C)[C@@H](c3ccc(=O)oc3)[C@@H](O)[C@H]3O[C@]132 [DCG, desacetylcinobufagin] , I see its AUC(0-inf) listed as 67

Looking up C[C@]12CC[C@H](O)C[C@@]1(O)CC[C@@H]1[C@@H]2CC[C@]2(C)[C@@H](c3ccc(=O)oc3)[C@@H](O)[C@H]3O[C@]132 [DCT, desacetylcinobufotalin] , I see its AUC(0-inf) listed as 13.4

Looking up C[C@]12CC[C@H](O)C[C@H]1CC[C@@H]1[C@@H]2[C@H](O)C(=O)[C@]2(C)[C@@H](c3ccc(=O)oc3)CC[C@]12O [ABG, arenobufagin] , I see its AUC(0-inf) listed as 15.5

Looking up C[C@]12CC[C@H](O)C[C@@]1(O)CC[C@@H]1[C@@H]2CC[C@]2(C)[C@@H](c3ccc(=O)oc3)CC[C@]12O [TCG, telocinobufagin] , I see its AUC(0-inf) listed as 24.5

----------
Would you mind telling me the reported −80°C for 30 days, RE of each entry?
Experiment: Stability of analytes in rat plasma QC samples under storage conditions
Type: physicochemical
Settings: rat plasma, long-term; high QC level (249.58–250.28 ng/ml), n = 6
Give the value, in units of %, as a plain number.

Looking up C[C@]12CC[C@H](O)C[C@H]1CC[C@@H]1[C@@H]2[C@H](O)C(=O)[C@]2(C)[C@@H](c3ccc(=O)oc3)CC[C@]12O , I see its −80°C for 30 days, RE listed as 2.3

Looking up C[C@]12CC[C@H](O)C[C@H]1CC[C@@H]1[C@@H]2CC[C@]2(C)[C@@H](c3ccc(=O)oc3)C[C@H]3O[C@]132 , I see its −80°C for 30 days, RE listed as −2.8

Looking up C[C@]12CC[C@H](O)C[C@H]1CC[C@@H]1[C@@H]2[C@H](O)C[C@]2(C)[C@@H](c3ccc(=O)oc3)CC[C@]12O , I see its −80°C for 30 days, RE listed as −4.9

Looking up CC(=O)O[C@H]1[C@H]2O[C@]23[C@@H]2CC[C@@H]4C[C@@H](O)CC[C@]4(C)[C@H]2CC[C@]3(C)[C@H]1c1ccc(=O)oc1 , I see its −80°C for 30 days, RE listed as 2.3

Looking up CC(=O)O[C@H]1[C@H]2O[C@]23[C@@H]2CC[C@]4(O)C[C@@H](O)CC[C@]4(C)[C@H]2CC[C@]3(C)[C@H]1c1ccc(=O)oc1 , I see its −80°C for 30 days, RE listed as −8.7

Looking up C[C@]12CC[C@H](O)C[C@H]1CC[C@@H]1[C@@H]2CC[C@]2(C)[C@@H](c3ccc(=O)oc3)[C@@H](O)[C@H]3O[C@]132 , I see its −80°C for 30 days, RE listed as −3.8

Looking up C[C@]12CC[C@H]3[C@@H](CC[C@]4(O)C[C@@H](O)CC[C@]34C=O)[C@@]1(O)CC[C@@H]2c1ccc(=O)oc1 , I see its −80°C for 30 days, RE listed as −1.3
